Where these numbers come from: PubChem BioAssay (NCI)

Tested on: PC-3 prostate
protocol.details: NCI tumour cell line growth inhibition, 48 h
Where a SMILES comes first, the peptide text is derived from it. The star is where a group is joined. Cbz = O=C(OCc1ccccc1)*; Bn = c1ccc(C*)cc1
TGI for assorted compounds

Consider the worked cases shown below.
CCN(CC)c1ccc(-c2cc(-c3cc(OC)c(OC)c(OC)c3)nc(N3CCC(O)CC3)c2C#N)cc1: > 100 µM
NC(Cc1c[nH]c2ccc([N+](=O)[O-])cc12)C(=O)O (stereo not drawn): > 100 µM
Nc1nc(Cl)c2ncn(Cc3cccc(CCl)c3)c2n1: 26.4 µM
COc1ccc(S(=O)(=O)Nc2c(/C=C\c3cc(OC)c(OC)c(OC)c3)ccc(OC)c2O)cc1: > 100 µM
COC(=O)C(Cc1ccc(O)cc1)NC(=O)C(COCc1ccccc1)NC(=O)OCc1ccccc1 (stereo not drawn) (Cbz-Ser(Bn)-Tyr-OMe; configuration not given here): 33.3 µM
COC(=O)c1c(C)c2c(c(C)c1C(=O)OC)-c1c(C)ccc3ccc(C)c-2c13: > 100 µM

The recorded TGI for CCC(C)C1=C(O)[N+]2([O-])Oc3ccc(C4=C(O)C(=O)C(c5ccc(O)cc5)=C(O)C4=O)cc3OC2(C(C)CC)C(=O)N1O (stereo not drawn) is > 100 µM

The recorded TGI for CC1=C(C(=O)Nc2ccc(F)c(Cl)c2)C(c2cccc(Oc3ccccc3)c2)NC(=S)N1 (stereo not drawn) is 48.2 µM
